- experimental target: Receptor tyrosine-protein kinase erbB-2 (Homo sapiens)
- run description: reducers of endogenous Her2 protein level, primary screen, SKBR3 breast tumor cells, AlphaScreen, ATP viability (AID 461);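 further: lower value means less Her2 protein in the cells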
- recorded conditions: 18-24 h, at 10 µM, stronger effect = lower value
Below, each entry is listed alongside its reported Her2 level.
Numeric only. Scale: %

molecule	Her2 level (%)
CCOc1ccc(CCNC(=O)CCc2nc(-c3ccc(OC)cc3)no2)cc1OCC	104
CC(=O)c1ccc2c3c(cccc13)C(=O)N(c1c(C)nn(C)c1C)C2=O	108
CC(=O)N(CCc1ccccc1C)Cc1cc2cc3c(cc2[nH]c1=O)OCO3	85.5

In: State Her2 level (Receptor tyrosine-protein kinase erbB-2 (Homo sapiens)) of CCC(C)(C(=O)NC1CCCC1)N(Cc1cccs1)C(=O)Cc1cccs1 (centres undefined) .
Out: 93

In: State Her2 level (Receptor tyrosine-protein kinase erbB-2 (Homo sapiens)) of Cc1nc2c(c(=O)n1CC1CCCO1)c1nc3ccccc3nc1n2CC(C)C (centres undefined) .
Out: 89.5

In: State Her2 level (Receptor tyrosine-protein kinase erbB-2 (Homo sapiens)) of O=C(NCc1ccccc1)N[C@@H](Cc1ccccc1)C(=O)O .
Out: 95

In: State Her2 level (Receptor tyrosine-protein kinase erbB-2 (Homo sapiens)) of N/C(Cn1nnc(-c2ccccc2)n1)=N\O .
Out: 87.5

In: State Her2 level (Receptor tyrosine-protein kinase erbB-2 (Homo sapiens)) of O=C(Nc1cccc2ncccc12)c1ccc2c(c1)OCCO2 .
Out: 104

In: State Her2 level (Receptor tyrosine-protein kinase erbB-2 (Homo sapiens)) of CN1CCc2nc(SCCOc3ccccc3)c(C#N)cc2C1 .
Out: 25

In: State Her2 level (Receptor tyrosine-protein kinase erbB-2 (Homo sapiens)) of O=C(NCc1ccco1)c1cc2c(s1)CSC2 .
Out: 88

In: State Her2 level (Receptor tyrosine-protein kinase erbB-2 (Homo sapiens)) of CC(C)CCNC(=O)NC(=O)CSc1nnc(-c2ccccc2F)n1N .
Out: 108

In: State Her2 level (Receptor tyrosine-protein kinase erbB-2 (Homo sapiens)) of CCOc1ccc(/C=N/n2cnnc2)cc1 .
Out: 94.5

In: State Her2 level (Receptor tyrosine-protein kinase erbB-2 (Homo sapiens)) of C=CCNC(=O)CNS(=O)(=O)c1ccc(F)cc1 .
Out: 95.5

In: State Her2 level (Receptor tyrosine-protein kinase erbB-2 (Homo sapiens)) of CC(C)n1c(=NC(=O)c2ccco2)c(C#N)cc2c(=O)n3ccccc3cc21 .
Out: 106

In: State Her2 level (Receptor tyrosine-protein kinase erbB-2 (Homo sapiens)) of CC1=C(C(=O)OC(C)C)C(C2CC=CCC2)NC(=O)N1 (centres undefined) .
Out: 113
